Source of measurements: ChEMBL document CHEMBL1687695

- methodSummary: Association constant Ka of the compound
- Format: physicochemical
Numbered stars: 1 amine (or outer) side, 2 acyl side, 3 side chain; on linkers, the order of the positions; unused ones are H or OH. Square brackets hold non-standard residues; d marks the D form. Peptide text beside a SMILES is read from it. * marks the point of attachment. pY = N[C@@H](Cc1ccc(OP(=O)(O)O)cc1)C(=O)O; NH(CH2)9CO = O=C(CCCCCCCCCN[*:1])[*:2]; Nonanoyl = CCCCCCCCC(=O)*; Hexanoyl = CCCCCC(=O)*
measuredMetric: Ka (×10⁵ /M)
Output spec: scalar in ×10⁵ /M, unitless text.

Need Ka of CC(C)[C@@H]1NC(=O)[C@H](Cc2ccc(OP(=O)(O)O)cc2)NC(=O)CCCCCCCCCNC(=O)CNC(=O)[C@H](CC(N)=O)NC1=O (cyclo(G[NH(CH2)9CO][pY]VN)) , thanks.
8.5

Same again, this time with CCCCCCCCC(=O)N[C@@H](Cc1ccc(OP(=O)(O)O)cc1)C(=O)N[C@H](C(=O)N[C@@H](CC(N)=O)C(=O)NCC(=O)NC)C(C)C (Nonanoyl-[pY]VNG-NHMe)
5.7

Same again, this time with CCCCCC(=O)N[C@@H](Cc1ccc(OP(=O)(O)O)cc1)C(=O)N[C@H](C(=O)N[C@@H](CC(N)=O)C(=O)NCC(=O)NC)C(C)C (Hexanoyl-[pY]VNG-NHMe)
4.1
